experiment: chemical genetic growth profiling, strain panel (AID 1159580);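 also: tested at 20 µM; growth read once vehicle control cultures reached saturation at 30 °C; lower values mean less growth of the strain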; conditions: S. cerevisiae deletion strains, growth OD, locus YBR009C, strain hhf1
Hit rate of the full screen: of about 5,500 compounds, about 2,000 (36%) were called active. Not shown: some 18% with an inconclusive outcome. Rule as the data show it: active = normalized growth mostly below about 0.91 (no sharp cut-off); inconclusive = no clear call, values can overlap the other calls; inactive = mostly above about 0.92. This is one part of the list.
Labels: active, inactive

compound	class name
CC(C)CCCC(C)C1CCC2C3CC[C@H]4CCCC[C@]4(C)C3CC[C@]12C (stereo not given in full)	inactive
CC(CCC(=O)O)[C@H]1CCC2C3CC[C@@H]4CCCC[C@]4(C)C3CC[C@@]21C (stereo not given in full)	inactive
NC(N)=O	inactive
C[C@H](CCC(=O)O)[C@H]1CCC2C3C(CC[C@@]21C)[C@@]1(C)CC[C@@H](O)C[C@H]1C[C@H]3O (stereo not given in full)	inactive
COC(=O)CCC(C)C1CCC2C3CC[C@@H]4C[C@H](O)CC[C@]4(C)C3C[C@H](O)[C@]12C (stereo not given in full)	inactive
CC[C@H](CCC(C)[C@H]1CCC2C3CCC4C[C@@H](O)CC[C@]4(C)C3CC[C@@]21C)C(C)C (stereo not given in full)	inactive
C/C=C/C(=O)N(CC)c1ccccc1C	inactive
CC(CCC(=O)O)[C@H]1CCC2C3C(C[C@H](O)[C@@]21C)[C@@]1(C)CC[C@@H](O)C[C@H]1C[C@H]3O (stereo not given in full)	inactive
O=c1cc(-c2ccccc2)oc2cc(O)c(O)c(O)c12	active
CC(CCC(=O)O)[C@H]1CCC2C3C[C@H](O)[C@@H]4C[C@H](O)CC[C@]4(C)C3CC[C@@]21C (stereo not given in full)	inactive
